Reported Mean % WT Binding by item:
target: human CD33 variant I47P (human, UniProt P20138 18-364); test: flow cytometry, IgG on cells expressing the mutant
Sequence (P20138 18-364 I47P limits assumed): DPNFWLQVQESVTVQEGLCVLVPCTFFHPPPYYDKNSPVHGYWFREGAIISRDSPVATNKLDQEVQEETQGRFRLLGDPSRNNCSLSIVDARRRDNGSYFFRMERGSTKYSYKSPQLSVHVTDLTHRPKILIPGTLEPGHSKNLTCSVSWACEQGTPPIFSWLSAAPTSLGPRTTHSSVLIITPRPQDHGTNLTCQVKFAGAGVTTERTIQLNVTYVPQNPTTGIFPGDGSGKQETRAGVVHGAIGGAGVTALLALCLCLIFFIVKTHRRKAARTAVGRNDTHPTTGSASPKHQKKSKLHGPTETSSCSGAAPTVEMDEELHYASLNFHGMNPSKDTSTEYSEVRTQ

Observe how each entry below is paired with its result.
>  <binder>
Refmab #2 (antibody, human IgG1, V domains shown, Tested in IgG format; human IgG1 Fc silent (PG-LALA)) VH: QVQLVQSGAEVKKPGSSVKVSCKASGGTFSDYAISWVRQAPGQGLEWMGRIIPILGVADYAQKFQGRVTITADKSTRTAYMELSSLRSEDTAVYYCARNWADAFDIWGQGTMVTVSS VL: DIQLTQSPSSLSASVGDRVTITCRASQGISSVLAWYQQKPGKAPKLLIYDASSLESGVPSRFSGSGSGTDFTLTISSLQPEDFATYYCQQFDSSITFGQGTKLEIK

>  <result>
0.7 % of WT

$$$$
>  <binder>
Refmab #4 (antibody, human IgG1, V domains shown, Tested in IgG format; human IgG1 Fc silent (PG-LALA)) VH: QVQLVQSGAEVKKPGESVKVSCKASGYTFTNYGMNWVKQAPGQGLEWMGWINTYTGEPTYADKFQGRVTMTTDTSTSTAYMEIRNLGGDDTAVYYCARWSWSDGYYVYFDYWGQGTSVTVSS VL: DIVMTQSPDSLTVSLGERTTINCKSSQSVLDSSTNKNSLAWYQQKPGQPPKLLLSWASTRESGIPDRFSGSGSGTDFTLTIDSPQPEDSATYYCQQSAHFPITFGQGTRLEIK

>  <result>
49 % of WT

$$$$
>  <binder>
Refmab #3 (antibody, human IgG1, V domains shown, Tested in IgG format; human IgG1 Fc silent (PG-LALA)) VH: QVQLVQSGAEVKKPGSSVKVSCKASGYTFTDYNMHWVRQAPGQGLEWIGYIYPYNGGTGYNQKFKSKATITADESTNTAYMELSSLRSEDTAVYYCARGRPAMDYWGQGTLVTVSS VL: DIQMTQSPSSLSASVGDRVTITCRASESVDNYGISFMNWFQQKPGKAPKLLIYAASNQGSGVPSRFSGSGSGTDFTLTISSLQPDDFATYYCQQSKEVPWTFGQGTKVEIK

>  <result>
2.8 % of WT

$$$$

Alright, here's another binder for you.
Specify measured Mean % WT Binding for Refmab #1 (antibody, human IgG1, V domains shown, Tested in IgG format; human IgG1 (Absolute Antibody hP67.6, Cat. No. Ab00283-10.0); also called hP67.6) VH: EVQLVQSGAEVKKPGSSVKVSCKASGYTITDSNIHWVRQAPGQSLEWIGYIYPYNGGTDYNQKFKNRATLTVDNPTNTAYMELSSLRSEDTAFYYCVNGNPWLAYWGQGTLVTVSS VL: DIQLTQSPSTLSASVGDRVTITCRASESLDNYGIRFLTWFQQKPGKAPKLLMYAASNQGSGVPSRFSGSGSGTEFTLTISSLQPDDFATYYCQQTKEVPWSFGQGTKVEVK .
84.5 % of WT

From: patent US20260242735A1
